target: UniProt:P09874; assay: PARP enzyme inhibition assay; assay type: biochemical; settings: 20 nM purified PARP (5 nM for tight-binding inhibitors), 500 μM NAD+, 25° C.; several values in one cell = repeat determinations; read-out: Inhibition Constant Ki
Sequence (P09874 whole entry): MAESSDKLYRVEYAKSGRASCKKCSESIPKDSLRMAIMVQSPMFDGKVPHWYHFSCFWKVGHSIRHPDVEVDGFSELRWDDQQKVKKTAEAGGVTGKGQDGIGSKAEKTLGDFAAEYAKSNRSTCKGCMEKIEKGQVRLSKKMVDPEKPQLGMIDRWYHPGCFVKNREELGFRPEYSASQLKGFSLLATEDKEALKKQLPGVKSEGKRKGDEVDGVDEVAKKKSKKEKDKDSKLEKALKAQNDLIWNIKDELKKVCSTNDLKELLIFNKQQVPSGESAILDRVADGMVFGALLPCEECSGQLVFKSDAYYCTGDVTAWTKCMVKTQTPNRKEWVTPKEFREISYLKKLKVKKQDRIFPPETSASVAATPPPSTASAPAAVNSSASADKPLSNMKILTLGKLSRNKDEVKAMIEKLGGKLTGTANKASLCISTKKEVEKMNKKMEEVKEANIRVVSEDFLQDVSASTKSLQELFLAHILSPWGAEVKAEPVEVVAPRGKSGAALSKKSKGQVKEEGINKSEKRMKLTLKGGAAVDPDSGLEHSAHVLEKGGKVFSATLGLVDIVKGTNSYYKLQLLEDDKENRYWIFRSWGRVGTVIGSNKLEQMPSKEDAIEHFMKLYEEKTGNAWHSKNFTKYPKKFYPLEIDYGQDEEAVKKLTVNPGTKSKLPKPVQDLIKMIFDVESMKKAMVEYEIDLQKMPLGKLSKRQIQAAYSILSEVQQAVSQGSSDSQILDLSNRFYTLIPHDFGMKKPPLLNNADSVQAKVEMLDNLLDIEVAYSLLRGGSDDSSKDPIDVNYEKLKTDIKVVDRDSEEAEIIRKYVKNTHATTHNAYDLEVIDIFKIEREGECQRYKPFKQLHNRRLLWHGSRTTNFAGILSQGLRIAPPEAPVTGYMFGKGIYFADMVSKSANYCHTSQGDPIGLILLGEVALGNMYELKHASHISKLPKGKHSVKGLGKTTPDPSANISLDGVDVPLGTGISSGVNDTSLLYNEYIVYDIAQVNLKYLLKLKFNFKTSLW
pKi: −log10 of the molar value.
# label = true if pKi >= 8 else false

[[record]]
structure_string = "CN(CCc1ccncc1)Cc1ccc(-c2nc3cccc4c3n2CCNC4=O)cc1"
discrete_label = "true"

[[record]]
structure_string = "C[C@H]1Cn2c(-c3ccc(Cl)cc3)nc3cccc(c32)C(=O)N1"
discrete_label = "true"

[[record]]
structure_string = "O=C1NCCn2c(-c3ccc(CO)cc3)nc3cc(F)cc1c32"
discrete_label = "true"

[[record]]
structure_string = "NC(=O)c1ccc(Oc2ccc(-c3nc4cccc5c4n3CCNC5=O)cn2)cc1"
discrete_label = "true"

[[record]]
structure_string = "Cc1cn2c3c(cccc13)C(=O)NCC2"
discrete_label = "false"

[[record]]
structure_string = "O=C1NCCn2c(C3CCCCC3)nc3cccc1c32"
discrete_label = "false"

[[record]]
structure_string = "CN(C)Cc1cccc(-c2nc3cc(F)cc4c3n2CCNC4=O)c1"
discrete_label = "true"

